// provenance: paper PMC6420064

- test.name: Stability in rat liver microsomes
- Format: in vitro ADME
- condition.label: rat, rat liver microsomes, pH 7.4

smiles.string	half-life at 1 μM
CCCCCCCC/C=C\CCCCCCCC(=O)N[C@H](CCCCN)C(=O)O.Cl	> 4.25 h

----------
# Lookup of reported half-life at 1 μM keyed by entry
- test.name: Stability in human liver microsomes
- Format: in vitro ADME
- condition.label: human, human liver microsomes, pH 7.4

compound	half-life at 1 μM
CCCCCCCC/C=C\CCCCCCCC(=O)N[C@H](CCCCN)C(=O)O.Cl [Compound 33]	> 4.25 h
CCCCCCCC/C=C\CCCCCCCC(=O)N[C@@H](CCCCN)C(=O)O.Cl [Compound 32]	> 4.25 h

----------
- test.name: Stability in human plasma
- Assay type: in vitro ADME
- condition.label: human, human plasma (pooled)

compound	half-life at 1000 ng/mL
CCCCCCCC/C=C\CCCCCCCC(=O)N[C@@H](CCCCN)C(=O)O.Cl [Compound 32]	> 17 h
